Listing of recorded protein stability index by entry.
B1: NP_006221.1 (parent)
chain: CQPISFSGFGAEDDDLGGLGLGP

Variants of: B1
Experiment: protein stability index of a GFP-peptide fusion (GPS, HEK-293T) (PSI 1-6); higher = more stable;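 also: lentivirally expressed fusion library, cells FACS-sorted into six equal-sized GFP/DsRed ratio bins, PSI computed from sequencing read fractions per bin weighted by bin number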
Conditions: c terminus: native

{"Ordered Residues": "CQPISFSGFGAEDDDLGGLVLGP [G20V]", "protein stability index": 3.37}
{"Ordered Residues": "CQPISFSGFGAEDDDLGGWGLGP [L19W]", "protein stability index": 2.78}
{"Ordered Residues": "CQPISRSGFGAEDDDLGGLGLGP [F6R]", "protein stability index": 3.86}
{"Ordered Residues": "CQPISFSGFGFEDDDLGGLGLGP [A11F]", "protein stability index": 1.95}
{"Ordered Residues": "CQPISFSGFGAEDDDWGGLGLGP [L16W]", "protein stability index": 2.25}
{"Ordered Residues": "CQPISFSGFGAEDDDLKGLGLGP [G17K]", "protein stability index": 2.08}
{"Ordered Residues": "CQPISFSGFGIEDDDLGGLGLGP [A11I]", "protein stability index": 2.65}
{"Ordered Residues": "CQPWSFSGFGAEDDDLGGLGLGP [I4W]", "protein stability index": 2.25}
{"Ordered Residues": "CQPISFSGFGAEDDDLGGLGLFP [G22F]", "protein stability index": 2.4}
{"Ordered Residues": "CQPISFSGFGAPDDDLGGLGLGP [E12P]", "protein stability index": 2.07}
{"Ordered Residues": "CQPISFSSFGAEDDDLGGLGLGP [G8S]", "protein stability index": 2.15}
